# EXPERIMENT DESCRIPTION: NCI Yeast Anticancer Drug Screen. Data for the cln2 rad14 strain (AID 165);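 further: 0% = growth equal to vehicle treated cultures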
# TEST SETTINGS: S. cerevisiae cln2 rad14 strain, at 50.0 µM
This is part of a sample that, as a whole, favours compounds with a hit. Of some 79,000 tested, about 15% had one in any assay. Active and inactive are the calls of the source. No stated cut-off is given here; in the data, active means growth inhibition above about 70%; inactive means the rest.
Outcomes you can answer with include only these: active, inactive

Tell me the assay call for O=C(NC[N+]12CCO[B-]1(c1ccc(Br)cc1)OCC2)c1ccccc1O (configuration not stated) please. inactive

Write down the call the test reported for this molecule. Item: C=Cc1ccccc1C1(O)C=CC(OC)(OC)C=C1 inactive

# outcome recorded in this test, key = COc1ccc(-c2n[nH]c(C(F)(F)F)c2N=NN(C)C)cc1OC active

Can you look up the reported call for Nc1ccc(O)c2c1C(=O)c1ccccc1C2O (configuration not stated) for me? inactive

What is the recorded call for this molecule in the test? Nc1ccc2ccccc2c1N=Cc1ccccc1[N+](=O)[O-] inactive

Hey, what did the test say about COC(=O)c1cc[nH]c(=O)c1 ? inactive

---

# EXPERIMENT DESCRIPTION: NCI Yeast Anticancer Drug Screen. Data for the rad50 strain (AID 155);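 further: 0% = growth of vehicle-only cultures of the same strain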
# TEST SETTINGS: S. cerevisiae rad50 strain growth inhibition; at 50.0 µM
About 79,000 compounds went through this panel and 15% of them were active in at least one assay; those are over-represented in the sample as a whole. Active and inactive are the calls of the source. No stated cut-off is given here; in the data, active means growth inhibition above about 70%; inactive means the rest.
Thanks in advance; please answer with one of these: active, inactive

CN(C)CC1CC/C(=C\c2ccc(Cl)c(Cl)c2)C1=O (stereo unspecified) :: active
CC(C)(C)OC(=O)c1ccc(NCC2=C(Br)C(=O)C=CC2=O)cc1 :: active
CCCCCCCCCCCCCCCCCCNC(=S)/N=C/c1c(O)cc(C)oc1=O :: inactive
CC(C)[C@@H]1CC[C@@H](C)C[C@H]1OC(=O)NN :: active
O=C(/C=C/c1ccc([N+](=O)[O-])o1)N1CCN(Cc2ccccc2)CC1 :: active
CC(=O)OCCSCCOC(C)=O :: active
CC(=O)Nc1ccc(C#N)c2ccccc12 :: inactive
COc1ccc(C(CC(=O)c2ccc(C)cc2)Sc2ccccc2N)cc1 (stereo unspecified) :: inactive
CCCCCCCCCCCCCCCCCCNCCCCCCCCCCCCCCCC :: inactive
O=C(O)NCc1ccccc1 (tested in a mixture with another compound) :: active

# evaluate next
Hey, what did the test say about COC(=O)c1n[nH]c(C(C)C)c1N=NN(C)C ? active

---

// reported growth inhibition for each item listed
# EXPERIMENT DESCRIPTION: NCI Yeast Anticancer Drug Screen. Data for the mlh1 rad18 strain (AID 175)
# TEST SETTINGS: S. cerevisiae mlh1 rad18 strain growth inhibition; at 5.0 µM (retest, dose inferred, filed as 0.5); stronger effect = higher value
# Protocol: Growth inhibition of yeast strains with defined genetic alterations is measured as a screen for potential anti-cancer activity. Selected strains with alterations in DNA damage repair or cell cycle control were exposed to compounds and growth inhibition was measured relative to vehicle treated controls. The strain used in this assay is mlh1 rad18
Compounds without any hit were thinned out: in the full panel of roughly 79,000, 15% have a hit.
Give the value in % but do not write % after it.

// CCCCCCCCCCCCCCCCCCOS(=O)(=O)O (tested in a mixture with another compound) : growth inhibition value = -27

// C(=P(c1ccccc1)(c1ccccc1)c1ccccc1)[P+](c1ccccc1)(c1ccccc1)c1ccccc1 : growth inhibition value = 99

The value of growth inhibition measured for the molecule CN(C)CCOc1cc2c(c3ccccc13)-c1ccccc1C2O (stereo not given) turned out to be 7

Item: Cc1ccc(C)c(C(=O)/C=C/C(=O)O)c1 | growth inhibition: 42

The molecule C=C1CC(Cn2cc(C)c(=O)[nH]c2=O)(c2ccc(Cl)cc2)OC1=O (stereo not given) showed growth inhibition equal to 7

Origin of values: PubChem BioAssay (NCI)
